Entries and their measured OD450 follow.
Target: T1, human MSLN-R3-his protein (human, UniProt Q13421 487-598)
T1 construct: Self-made in HEK293E cells; also called human MSLN-R3 protein; hMSLN-R3-his; not shown: His tag
T1 sequence (Q13421 495-606): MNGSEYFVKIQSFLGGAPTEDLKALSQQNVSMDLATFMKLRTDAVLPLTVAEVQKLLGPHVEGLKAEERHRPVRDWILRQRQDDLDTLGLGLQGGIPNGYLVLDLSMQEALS
Test: ELISA on coated antigen, antibody 0.0001 nM
# unit: OD450 | format: bare number

// below: answered binders
>  <binder>
S009-F2.47.1 (antibody, human IgG1, kappa, V domains shown, Human-murine chimeric antibody: murine VH/VL on human IgG1 heavy and kappa light constant regions) VH: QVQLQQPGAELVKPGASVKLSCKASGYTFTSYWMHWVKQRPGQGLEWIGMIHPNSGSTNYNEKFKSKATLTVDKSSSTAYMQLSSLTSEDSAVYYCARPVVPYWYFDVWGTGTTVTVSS VL: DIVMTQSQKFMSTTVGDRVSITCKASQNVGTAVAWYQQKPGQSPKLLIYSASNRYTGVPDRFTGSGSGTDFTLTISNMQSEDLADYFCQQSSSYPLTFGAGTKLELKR

>  <output.unit>
OD450

>  <OD450>
0.05

$$$$
>  <binder>
S009-F2.13.3 (antibody, human IgG1, kappa, V domains shown, Human-murine chimeric antibody: murine VH/VL on human IgG1 heavy and kappa light constant regions) VH: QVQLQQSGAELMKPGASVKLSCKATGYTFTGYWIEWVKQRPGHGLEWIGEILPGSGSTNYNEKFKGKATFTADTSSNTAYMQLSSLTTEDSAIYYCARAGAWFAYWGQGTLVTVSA VL: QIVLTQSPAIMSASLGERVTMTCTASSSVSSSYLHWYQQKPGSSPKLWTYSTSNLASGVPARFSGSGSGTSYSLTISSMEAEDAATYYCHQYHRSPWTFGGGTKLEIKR

>  <output.unit>
OD450

>  <OD450>
0.05

$$$$

Request the reported OD450 associated with S009-F2.16.10 (antibody, human IgG1, kappa, V domains shown, Human-murine chimeric antibody: murine VH/VL on human IgG1 heavy and kappa light constant regions) VH: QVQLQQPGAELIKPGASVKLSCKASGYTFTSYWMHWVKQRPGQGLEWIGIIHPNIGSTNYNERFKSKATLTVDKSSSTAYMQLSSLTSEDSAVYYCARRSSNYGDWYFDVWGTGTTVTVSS VL: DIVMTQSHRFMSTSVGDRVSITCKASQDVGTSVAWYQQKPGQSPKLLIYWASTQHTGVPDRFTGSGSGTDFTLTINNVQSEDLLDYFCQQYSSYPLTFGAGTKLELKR 0.05

The measured values listed here are drawn from patent US20250250357A1.
